- System: MS2 coat protein
- assay.summary: apparent KD of MS2 coat protein; higher = weaker reporter binding
- recorded.conditions: Eterna round: R107; input ligand: theophylline 20 uM
outcome.measure: apparent KD of MS2 coat protein (nM)
Answers are plain numbers, in nM.

>>> observed_result("GCUAGCCGAAAGGCUAGCAAGGCUACAGAAGGAGCGUGCGAAAGCACAGGUAGGUCGCUGAGCUUGAGGAUCACCCAAGUUGCCU [SSAA - Alter Amptam #1 V+V2]")
57.2
>>> observed_result("GCGAUGGAGCGAAGGAGCGUGCUGGUACAUGAGGAUCACCCAUGUGAACCGCAGCGCUAAGCACAGGUAGGUCGCGCUCCAUCGC [EAB NP+V+V2 #14]")
28.4

Task: Read off the recorded apparent KD of MS2 coat protein for GGACUAACCAGAAGGAGCGGCACAAGCAGAAACUGCAAUCCUCCGCACGAGGAUCACCCGUGUCAGGUAGGUCGCUGGUUAGUCG [ArgBX 28]
Result: 74.6
